measured_on: T1, Recombinant DR3-Fc (R&D Systems, cat. #943-D3) (UniProt Q93038 25-199, limits assumed)
T1 construct: dimeric MW~92 kDa; also called DR3 receptor; Fc-DR3; not shown: Fc part of the bought fusion
T1 sequence (looked up): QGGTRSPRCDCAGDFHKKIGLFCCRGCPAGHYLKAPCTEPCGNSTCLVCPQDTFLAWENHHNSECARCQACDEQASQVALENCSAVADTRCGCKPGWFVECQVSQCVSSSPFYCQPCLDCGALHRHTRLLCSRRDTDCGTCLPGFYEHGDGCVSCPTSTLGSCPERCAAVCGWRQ
procedure_summary: ELISA, DR3-Fc immobilized
reported_endpoint: Rel EC50

Look over these answered cases.
>  <binder>
TL1W95 (His-TEV-TL1A Q167A) (ligand, also called TL1W95 (Q167A)) HHHHHHENLYFQGLKGQEFAPSHQQVYAPLRADGDKPRAHLTVVRQTPTQHFKNQFPALHWEHELGLAFTKNRMNYTNKFLLIPESGDYFIYSQVTFRGMTSECSEIRAAGRPNKPDSITVVITKVTDSYPEPTQLLMGTKSVCEVGSNWFQPIYLGAMFSLQEGDKLMVNVSDISLVDYTKEDKTFFGAFLL

>  <recorded_measurement>
0.7 ratio (head: nM)

$$$$
>  <binder>
TL1W132 (His-TEV-TL1A T239A) (ligand, also called TL1W132 (T239A)) HHHHHHENLYFQGLKGQEFAPSHQQVYAPLRADGDKPRAHLTVVRQTPTQHFKNQFPALHWEHELGLAFTKNRMNYTNKFLLIPESGDYFIYSQVTFRGMTSECSEIRQAGRPNKPDSITVVITKVTDSYPEPTQLLMGTKSVCEVGSNWFQPIYLGAMFSLQEGDKLMVNVSDISLVDYAKEDKTFFGAFLL

>  <recorded_measurement>
5.5 ratio (head: nM)

$$$$
>  <binder>
TL1W113 (His-TEV-TL1A P189S) (ligand, also called TL1W113 (P189S)) HHHHHHENLYFQGLKGQEFAPSHQQVYAPLRADGDKPRAHLTVVRQTPTQHFKNQFPALHWEHELGLAFTKNRMNYTNKFLLIPESGDYFIYSQVTFRGMTSECSEIRQAGRPNKPDSITVVITKVTDSYSEPTQLLMGTKSVCEVGSNWFQPIYLGAMFSLQEGDKLMVNVSDISLVDYTKEDKTFFGAFLL

>  <recorded_measurement>
38.2 ratio (head: nM)

$$$$

Please look up its Rel EC50: TL1W121 (His-TEV-TL1A S206E) (ligand, also called TL1W121 (S206E)) HHHHHHENLYFQGLKGQEFAPSHQQVYAPLRADGDKPRAHLTVVRQTPTQHFKNQFPALHWEHELGLAFTKNRMNYTNKFLLIPESGDYFIYSQVTFRGMTSECSEIRQAGRPNKPDSITVVITKVTDSYPEPTQLLMGTKSVCEVGENWFQPIYLGAMFSLQEGDKLMVNVSDISLVDYTKEDKTFFGAFLL
4 ratio (head: nM)

Please look up its Rel EC50: TL1W81 (His-TEV-TL1A K111S) (ligand, also called TL1W81 (K111S)) HHHHHHENLYFQGLKGQEFAPSHQQVYAPLRADGDKPRAHLTVVRQTPTQHFSNQFPALHWEHELGLAFTKNRMNYTNKFLLIPESGDYFIYSQVTFRGMTSECSEIRQAGRPNKPDSITVVITKVTDSYPEPTQLLMGTKSVCEVGSNWFQPIYLGAMFSLQEGDKLMVNVSDISLVDYTKEDKTFFGAFLL
1.3 ratio (head: nM)

Please look up its Rel EC50: TL1W44 (His-TEV-TL1A P189K) (ligand, also called TL1W44 (P189K)) HHHHHHENLYFQGLKGQEFAPSHQQVYAPLRADGDKPRAHLTVVRQTPTQHFKNQFPALHWEHELGLAFTKNRMNYTNKFLLIPESGDYFIYSQVTFRGMTSECSEIRQAGRPNKPDSITVVITKVTDSYKEPTQLLMGTKSVCEVGSNWFQPIYLGAMFSLQEGDKLMVNVSDISLVDYTKEDKTFFGAFLL
6.4 ratio (head: nM)
